# System: HOP-62
# measurement_notes: NCI tumour cell line growth inhibition, 48 h
Activity calls are given as the source filed them. No stated cut-off is given here; in the data, active = GI50 up to about 1.1 µM and inactive = higher.
// one of True for active, False for inactive, no free text

Entry COc1ccc2[nH]c3c(C)c4cc[n+](C)cc4c(C)c3c2c1 : call = ?
True

Continuing:
Outcome? O=C(CO)C1CC2C=CC1C2 (stereo not given)
False

Hi team, can someone confirm the assay call for N#Cc1cc2c(cc1Cl)Sc1nnc(Nc3ccccc3)n1S2(=O)=O ?
False

Test call, this molecule: O=C1C2CCN(CC2)C1CN1CCOCC1 (stereo not given)
False

Name the outcome recorded for O=C1NC2c3c(I)sc(I)c3/C(=N\O)C2O1 (stereo not given) in the assay.
False

Please state the recorded outcome for this molecule: Cc1nc(Nc2ccc(Cl)cc2)sc1C(=O)NNc1ccc([N+](=O)[O-])cc1[N+](=O)[O-]
False

// outcome(item) with item = c1ccc2c3ccn4ccc5c6ccccc6[nH]c5c4c-3nc2c1
False
